Data origin, for the record: paper PMC4132713

test system: DARPin 2C10 (synthetic construct); assay: SPR; conditions: SPR: TBS (50 mM Tris-HCl, 150 mM NaCl, pH 6.8) or TBS-KCl (150 mM KCl instead of NaCl), 1-32 nM DARPin on 300-500 RU biotinylated DNA; ELISA: 100 nM …
Assay Metric: Kd (µM)
// units = µM; emit number, no label

Problem: Query Kd on DARPin 2C10 (synthetic construct) for TTAGGGTTAGGGTTAGGGTTAGGG [tel (biotinylated)]
Solution: 0.048

* * *

test system: DARPin 1G2 (synthetic construct); test: competition SPR; details: SPR: TBS (50 mM Tris-HCl, 150 mM NaCl, pH 6.8) or TBS-KCl (150 mM KCl instead of NaCl), 1-32 nM DARPin on 300-500 RU biotinylated DNA; ELISA: 100 nM …
Assay Metric: Kd (nM)
// units = nM; emit number, no label

Problem: # Kd lookup, item TTAGGGTTAGGGTTAGGGTTAGGG [tel (non-biotinylated)]
Solution: 3.6

* * *

tested on: DARPin 1C7 (synthetic construct); assay: SPR; details: SPR: TBS (50 mM Tris-HCl, 150 mM NaCl, pH 6.8) or TBS-KCl (150 mM KCl instead of NaCl), 1-32 nM DARPin on 300-500 RU biotinylated DNA; ELISA: 100 nM …
Measured Kd, listed per entry for reference.
// units = nM; emit number, no label

Problem: # Kd lookup, item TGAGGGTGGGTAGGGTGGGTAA [c-MYC]
Solution: 81

Problem: # Kd lookup, item CAGGGGTGTGGGGACAGGGGTGTGGGGAC [ILPR]
Solution: 33

Problem: # Kd lookup, item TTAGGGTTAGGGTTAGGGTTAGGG [tel (biotinylated)]
Solution: 37

* * *

system: DARPin 1C6 (synthetic construct); assay: competition SPR; details: SPR: TBS (50 mM Tris-HCl, 150 mM NaCl, pH 6.8) or TBS-KCl (150 mM KCl instead of NaCl), 1-32 nM DARPin on 300-500 RU biotinylated DNA; ELISA: 100 nM …
Assay Metric: pKd
Schema: pKd number; meaning minus log10 of the concentration expressed in molar units.

Problem: # pKd lookup, item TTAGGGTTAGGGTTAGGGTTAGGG [tel (non-biotinylated)]
Solution: 7.25

* * *

tested on: DARPin 2G7 (synthetic construct); assay: SPR; conditions: SPR: TBS (50 mM Tris-HCl, 150 mM NaCl, pH 6.8) or TBS-KCl (150 mM KCl instead of NaCl), 1-32 nM DARPin on 300-500 RU biotinylated DNA; ELISA: 100 nM …
Assay Metric: pKd
Schema: pKd number; meaning minus log10 of the concentration expressed in molar units.

Problem: # pKd lookup, item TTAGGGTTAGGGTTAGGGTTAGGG [tel (biotinylated)]
Solution: 7.70

* * *

test system: DARPin 1G11 (synthetic construct); test: SPR; settings: SPR: TBS (50 mM Tris-HCl, 150 mM NaCl, pH 6.8) or TBS-KCl (150 mM KCl instead of NaCl), 1-32 nM DARPin on 300-500 RU biotinylated DNA; ELISA: 100 nM …
Measured Kd, listed per entry for reference.
// units = µM; emit number, no label

Reference set, count: 2
CAGGGGTGTGGGGACAGGGGTGTGGGGAC [ILPR]: 0.044
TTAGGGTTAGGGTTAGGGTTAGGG [tel (biotinylated)]: 0.072

For the next question, use this sequence.
Problem: # Kd lookup, item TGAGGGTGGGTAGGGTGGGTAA [c-MYC]
Solution: 0.019

* * *

tested on: DARPin 1G2 (synthetic construct); assay: competition SPR; conditions: SPR: TBS (50 mM Tris-HCl, 150 mM NaCl, pH 6.8) or TBS-KCl (150 mM KCl instead of NaCl), 1-32 nM DARPin on 300-500 RU biotinylated DNA; ELISA: 100 nM …
Assay Metric: pKd
Schema: pKd number; meaning minus log10 of the concentration expressed in molar units.

Problem: Query pKd on DARPin 1G2 (synthetic construct) for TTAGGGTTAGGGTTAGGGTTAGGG [tel (non-biotinylated)]
Solution: 7.16

* * *

tested on: DARPin 1H4 (synthetic construct); test: SPR; settings: SPR: TBS (50 mM Tris-HCl, 150 mM NaCl, pH 6.8) or TBS-KCl (150 mM KCl instead of NaCl), 1-32 nM DARPin on 300-500 RU biotinylated DNA; ELISA: 100 nM …
Assay Metric: pKd
Schema: pKd number; meaning minus log10 of the concentration expressed in molar units.

Problem: # pKd lookup, item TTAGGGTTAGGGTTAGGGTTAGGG [tel (biotinylated)]
Solution: 7.21
